These data points were gathered from patent US4000985A.

Assay: Storage solubility in No. 1 and No. 2 Heating Oil at ambient temperature and -10° C.
Format: physicochemical
Conditions: No. 1 Heating Oil, 20° C.-25° C. (Table 8)
Measured property: Solubility (% by Wt.)

P = CCCCC(CC)CNc1ccc2ccccc2c1N=Nc1cc(C)c(N=Nc2ccccc2C)cc1C (stereo not shown)
Q = CCCCC(CC)CNc1ccc2ccccc2c1N=Nc1ccc(N=Nc2ccccc2)cc1 (stereo not shown)
IN: Higher Solubility (% by Wt.): P or Q ? Give the label under which the chosen entry appears.
OUT: P
(P: 44.8 % by Wt., Q: 4.4 % by Wt.)

---

Assay: Rate and extent of dissolution in No. 1 and No. 2 Heating Oils at 25° C. (colorimetric)
Type: physicochemical
Conditions: No. 2 Fuel Oil, 10 Minutes, 25° C., aminoazotoluene dyes (Table 7)
Protocol: The solubility properties of each of the dyes of Examples 16-41 were evaluated in the fuels No. 1 and No. 2 Heating Oils, respectively. The procedure was as follows: Where the dyes are solid dyes, excess of pulverized solid dye, far beyond that which would dissolve, i.e., 30 to 35% dye, was added to the respective oils at 25° C. and agitated at constant speed. Samples were removed at 1, 10 and 20 minute intervals, filtered, and the amount of dissolved dye determined colorimetrically. […]
Measured property: Percent Dissolved (%)

Example entries and their recorded answers appear below.
| Compound | Percent Dissolved / % |
| --- | --- |
| CCCCCCNc1ccc2ccccc2c1N=Nc1ccc(N=Nc2ccccc2C)cc1C | 1.01 |
| Cc1ccccc1N=Nc1ccc(N=Nc2c(NCCOCCO)ccc3ccccc23)c(C)c1 | 0.15 |
| CCCCCCCCNc1ccc2ccccc2c1N=Nc1ccc(N=Nc2ccccc2C)cc1C | 2.89 |
| CCCCCCCCCCCCNc1ccc2ccccc2c1N=Nc1ccc(N=Nc2ccccc2C)cc1C | 4.68 |
| COCCCNc1ccc2ccccc2c1N=Nc1ccc(N=Nc2ccccc2C)cc1C | 4.21 |

a = CCNc1ccc2ccccc2c1N=Nc1ccc(N=Nc2ccccc2C)cc1C
b = Cc1ccccc1N=Nc1ccc(N=Nc2c(NC3CCCCC3)ccc3ccccc23)c(C)c1
c = CCCCCCCNc1ccc2ccccc2c1N=Nc1ccc(N=Nc2ccccc2C)cc1C
d = CCCCC(CC)COCCCNc1ccc2ccccc2c1N=Nc1ccc(N=Nc2ccccc2C)cc1C (centres unmarked)
IN: // ascending sort on recorded Percent Dissolved Please respond with the labels ordered as the question requires.
OUT: a, b, c, d
(a: 0.37%, b: 1.05%, c: 2.27%, d: 6.85%)

A = CCCCNc1ccc2ccccc2c1N=Nc1ccc(N=Nc2ccccc2C)cc1C
B = CCCCCCCCCCNc1ccc2ccccc2c1N=Nc1ccc(N=Nc2ccccc2C)cc1C
IN: Higher Percent Dissolved: A or B ? Give the label under which the chosen entry appears.
OUT: B
(B: 1.37%, A: 0.29%)

---

Test: Rate and extent of dissolution in No. 1 and No. 2 Heating Oils at 25° C. (colorimetric)
Format: physicochemical
Settings: No. 1 Fuel Oil, 20 Minutes, 25° C., aminoazotoluene dyes (Table 6)
Measured property: Percent Dissolved (%)

Example entries and their recorded answers appear below.
| Compound | Percent Dissolved [%] |
| --- | --- |
| CCCCC(CC)CNc1ccc2ccccc2c1N=Nc1ccc(N=Nc2ccccc2C)cc1C (stereo not drawn) [Example 1] | 58.0 |
| CCCCCCCCCCNc1ccc2ccccc2c1N=Nc1ccc(N=Nc2ccccc2C)cc1C [Example 39] | 1.14 |
| CCCCCCCCNc1ccc2ccccc2c1N=Nc1ccc(N=Nc2ccccc2C)cc1C [Example 37] | 1.78 |

a = CCNc1ccc2ccccc2c1N=Nc1ccc(N=Nc2ccccc2C)cc1C [Example 29]
b = CCOCCOCCCNc1ccc2ccccc2c1N=Nc1ccc(N=Nc2ccccc2C)cc1C [Example 35]
c = CCCCCCCCCCCCNc1ccc2ccccc2c1N=Nc1ccc(N=Nc2ccccc2C)cc1C [Example 41]
d = CCCCCCNc1ccc2ccccc2c1N=Nc1ccc(N=Nc2ccccc2C)cc1C [Example 33]
e = COCCCNc1ccc2ccccc2c1N=Nc1ccc(N=Nc2ccccc2C)cc1C [Example 31]
IN: Rank descending by Percent Dissolved. Please respond with the labels ordered as the question requires.
OUT: b, c, d, e, a
(b: 7.40%, c: 4.50%, d: 1.27%, e: 0.58%, a: 0.37%)

---

Test: Storage solubility in No. 1 and No. 2 Heating Oil at ambient temperature and -10° C.
Format: physicochemical
Conditions: No. 2 Heating Oil, 20° C.-25° C. (Table 9)
Measured property: Solubility (% by Wt.)

1 = CCCCC(CC)CNc1ccc2ccccc2c1N=Nc1ccc(N=Nc2ccccc2)cc1 (stereo not shown)
2 = CCCCC(CC)CNc1ccc2ccccc2c1N=Nc1cc(C)c(N=Nc2ccccc2C)cc1C (stereo not shown)
IN: Decide: 1 or 2 , by lowest recorded Solubility (% by Wt.). Give the label under which the chosen entry appears.
OUT: 1
(1: 5.1 % by Wt., 2: 44.1 % by Wt.)

---

Assay: Storage solubility in No. 1 and No. 2 Heating Oil at ambient temperature and -10° C.
Format: physicochemical
Settings: No. 2 Heating Oil, 20° C.-25° C. (Table 11)
Measured property: Solubility (% by Wt.)

| Compound | Unit text | Solubility (% by Wt.) |
| --- | --- | --- |
| CCCCC(CC)COCCCNc1ccc2ccccc2c1N=Nc1cc(C)c(N=Nc2ccccc2C)cc1C (stereo not shown) [Example 10] | % by Wt. | 29.7 |

P = CCCCC(CC)COCCCNc1ccc2ccccc2c1N=Nc1ccc(N=Nc2ccccc2)cc1C (stereo not shown) [Example 9]
Q = CCCCC(CC)COCCCNc1ccc2ccccc2c1N=Nc1ccc(N=Nc2ccccc2C)cc1C (stereo not shown) [Example 7]
IN: Decide: P or Q , by lowest recorded Solubility (% by Wt.). Give the label under which the chosen entry appears.
OUT: Q

---

Assay: Physical state of the isolated dye
Type: physicochemical
Settings: 20° C.
Measured property: Physical State of Dye at 20° C.

| Compound | Physical State of Dye at 20° C. |
| --- | --- |
| CCCCC(CC)CNc1ccc2ccccc2c1N=Nc1ccc(N=Nc2ccccc2)cc1 (centres unmarked) | Solid |
| CCCCC(CC)CNc1ccc2ccccc2c1N=Nc1ccc(N=Nc2ccccc2C)cc1C (centres unmarked) | Liquid |
| CCCCC(CC)COCCCNc1ccc2ccccc2c1N=Nc1cc(C)c(N=Nc2ccccc2C)cc1C (centres unmarked) | Tar |
| CCCCC(CC)CNc1ccc2ccccc2c1N=Nc1cc(C)c(N=Nc2ccccc2C)cc1C (centres unmarked) | Liquid |
| CCCCC(CC)COCCCNc1ccc2ccccc2c1N=Nc1ccc(N=Nc2ccccc2)cc1 (centres unmarked) | Liquid |
| CCCCC(CC)COCCCNc1ccc2ccccc2c1N=Nc1ccc(N=Nc2ccccc2)cc1C (centres unmarked) | Tar |
| CCCCC(CC)COCCCNc1ccc2ccccc2c1N=Nc1ccc(N=Nc2ccccc2C)cc1C (centres unmarked) | Solid |

We next turn to a different compound, shown below.
IN: Read the entry CCCCC(CC)CNc1ccc2ccccc2c1N=Nc1ccc(N=Nc2ccccc2)cc1C (centres unmarked) and write its reported Physical State of Dye at 20° C..
OUT: Liquid

---

Experiment: Rate and extent of dissolution in No. 1 and No. 2 Heating Oils at 25° C. (colorimetric)
Format: physicochemical
Conditions: No. 1 Fuel Oil, 1 Minute, 25° C., aminoazotoluene dyes (Table 6)
Measured property: Percent Dissolved (%)

| Compound | Unit text | Percent Dissolved |
| --- | --- | --- |
| CCCCCCNc1ccc2ccccc2c1N=Nc1ccc(N=Nc2ccccc2C)cc1C [Example 33] | % | 1.31 |
| Cc1ccccc1N=Nc1ccc(N=Nc2c(NCCOCCO)ccc3ccccc23)c(C)c1 [Example 32] | % | 0.09 |

P = CCCCNc1ccc2ccccc2c1N=Nc1ccc(N=Nc2ccccc2C)cc1C [Example 30]
Q = COCCCNc1ccc2ccccc2c1N=Nc1ccc(N=Nc2ccccc2C)cc1C [Example 31]
IN: Higher Percent Dissolved: P or Q ? Give the label under which the chosen entry appears.
OUT: Q

---

Experiment: Rate and extent of dissolution in No. 1 and No. 2 Heating Oils at 25° C. (colorimetric)
Assay type: physicochemical
Settings: No. 1 Fuel Oil, 10 Minutes, 25° C., aminoazotoluene dyes (Table 6)
Measured property: Percent Dissolved (%)

Example entries and their recorded answers appear below.
| Compound | Value observed |
| --- | --- |
| CCCCNc1ccc2ccccc2c1N=Nc1ccc(N=Nc2ccccc2C)cc1C | 0.26 |
| CCCCC(CC)COCCCNc1ccc2ccccc2c1N=Nc1ccc(N=Nc2ccccc2C)cc1C (stereo not drawn) | 7.41 |
| CCCCCCCNc1ccc2ccccc2c1N=Nc1ccc(N=Nc2ccccc2C)cc1C | 1.56 |

I = COCCCNc1ccc2ccccc2c1N=Nc1ccc(N=Nc2ccccc2C)cc1C
II = CCOCCOCCCNc1ccc2ccccc2c1N=Nc1ccc(N=Nc2ccccc2C)cc1C
III = Cc1ccccc1N=Nc1ccc(N=Nc2c(NCCOCCO)ccc3ccccc23)c(C)c1
IV = CCCCCCCCCCNc1ccc2ccccc2c1N=Nc1ccc(N=Nc2ccccc2C)cc1C
IN: Rank descending by Percent Dissolved. Please respond with the labels ordered as the question requires.
OUT: II, IV, I, III

A = CCNc1ccc2ccccc2c1N=Nc1ccc(N=Nc2ccccc2C)cc1C
B = CCCCCCNc1ccc2ccccc2c1N=Nc1ccc(N=Nc2ccccc2C)cc1C
C = CCCCCCCCCCCCNc1ccc2ccccc2c1N=Nc1ccc(N=Nc2ccccc2C)cc1C
IN: Rank descending by Percent Dissolved. Please respond with the labels ordered as the question requires.
OUT: C, B, A
(C: 4.04%, B: 1.28%, A: 0.32%)

a = Cc1ccccc1N=Nc1ccc(N=Nc2c(NC3CCCCC3)ccc3ccccc23)c(C)c1
b = CCCCCCCCNc1ccc2ccccc2c1N=Nc1ccc(N=Nc2ccccc2C)cc1C
IN: Higher Percent Dissolved: a or b ? Give the label under which the chosen entry appears.
OUT: b
